- testedSystem: p300 HAT domain (residues 1287-1666) (Homo sapiens (Human), UniProt Q09472)
- Sequence (Q09472 1287-1666): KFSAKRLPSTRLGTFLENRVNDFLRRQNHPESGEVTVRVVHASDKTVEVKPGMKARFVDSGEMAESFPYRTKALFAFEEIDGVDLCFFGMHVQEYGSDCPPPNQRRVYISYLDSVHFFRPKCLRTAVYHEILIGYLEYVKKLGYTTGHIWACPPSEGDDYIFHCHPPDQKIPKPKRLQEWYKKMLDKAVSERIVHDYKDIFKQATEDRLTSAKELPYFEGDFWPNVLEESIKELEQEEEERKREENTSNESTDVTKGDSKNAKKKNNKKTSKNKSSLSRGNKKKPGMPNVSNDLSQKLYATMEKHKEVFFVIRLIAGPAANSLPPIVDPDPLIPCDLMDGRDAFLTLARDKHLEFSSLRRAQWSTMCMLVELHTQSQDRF
- test: p300 HAT SPA assay (scintillation proximity assay, acetylation of biotinylated H3(1-21) peptide)
- Assay type: biochemical
- assayContext: p300 HAT domain; average of at least 2 replicate titrations; read-out: P300 HAT SPA IC50
Assignment: determine reported IC50 for the given compounds.

Return IC50 (reported value) for this compound: NS(=O)(=O)c1ccc(CCNC(C(=O)c2c[nH]c3c(Cl)c(Cl)ccc23)c2ccccc2)cc1 (single isomer, unassigned) [55 Isomer 2]
> 30 µM

Please look at this compound and report its IC50: CN(C)C(=O)c1cccc2c(C(=O)C(NCCc3ccc(Cl)cc3Cl)c3ccccc3)c[nH]c12 (single isomer, unassigned) [148 Isomer 1]
> 30 µM

Output measured IC50 for this item: Cc1cccc2c(C(=O)C(NC(C)Cc3ccc(Cl)cc3Cl)c3ccccc3)c[nH]c12 (single isomer, unassigned) [68 Isomer 1]
0.728 µM

Name the recorded IC50 of the compound listed here: CCNC(=O)c1ccc2c(C(=O)C(C)NCCc3ccc(C#N)cc3)c[nH]c2c1 (single isomer, unassigned) [76 Isomer 2]
> 5 µM

Give the value of IC50 reported for the following: O=C(c1c[nH]c2ccccc12)C(NCCc1ccc(OC(F)(F)F)cc1)c1ccccc1 (single isomer, unassigned) [40 Isomer 1]
> 60 µM

====

Consider the following compounds; for each one, report its pIC50.
- testedSystem: p300 HAT domain (residues 1287-1666) (Homo sapiens (Human), UniProt Q09472)
- test: p300 HAT SPA assay (scintillation proximity assay, acetylation of biotinylated H3(1-21) peptide)
- Assay type: biochemical
- assayContext: p300 HAT domain; average of at least 2 replicate titrations; read-out: P300 HAT SPA IC50
pIC50: −log10 of the molar value.

Look up pIC50 of CN(C)C(=O)CCc1ccc2c(C(=O)C(NCCc3ccc(F)cc3)c3ccccc3)c[nH]c2c1 (single isomer, unassigned) [49 Isomer 1] and report it.
< 4.52

Query pIC50 for O=C(c1c[nH]c2ccccc12)C(NCCc1ccc(Cl)cc1)C1CCCC1 (single isomer, unassigned) [25 Isomer 2]
< 4.22

Respond only with pIC50 recorded for Cc1cccc2c(C(=O)C(NC(C)Cc3ccc(Cl)cc3Cl)c3ccccc3)c[nH]c12 (single isomer, unassigned) [68 Isomer 3]
< 4.52

Supply measured pIC50 of O=C(c1c[nH]c2ccccc12)C(NCCc1ccc(-c2c[nH]nn2)cc1)c1ccccc1 (single isomer, unassigned) [57 Isomer 1] in your reply.
< 5.30

====

- testedSystem: p300 HAT domain (residues 1287-1666) (Homo sapiens (Human))
- test: p300 HAT SPA assay (scintillation proximity assay, acetylation of biotinylated H3(1-21) peptide)
- Format: biochemical
- assayContext: p300 HAT domain; average of at least 2 replicate titrations; read-out: P300 HAT SPA IC50
measuredProperty: IC50

GET IC50 | system: p300 HAT domain (residues 1287-1666) (Homo sapiens (Human)) | item: CN(C)C(=O)c1ccc(CCNC(C(=O)c2c[nH]c3ccccc23)c2ccccc2)cc1 (single isomer, unassigned) [135 Isomer 1]
> 60 µM

Lab note: record IC50 of O=C(c1c[nH]c2ccccc12)C(NCCN1CCCCC1=O)c1ccccc1 (single isomer, unassigned) [41 Isomer 2] tested on p300 HAT domain (residues 1287-1666) (Homo sapiens (Human)).
> 60 µM

Quote p300 HAT domain (residues 1287-1666) (Homo sapiens (Human)) IC50 for entry O=C(c1c[nH]c2ccccc12)C(NCCc1cccc(Cl)c1)c1ccccc1 (single isomer, unassigned) [4 Isomer 1] .
> 60 µM

====

- testedSystem: p300 HAT domain (residues 1287-1666) (Homo sapiens (Human), UniProt Q09472)
- test: p300 HAT SPA assay (scintillation proximity assay, acetylation of biotinylated H3(1-21) peptide)
- Assay type: biochemical
- assayContext: p300 HAT domain; average of at least 2 replicate titrations; read-out: P300 HAT SPA IC50
measuredProperty: IC50

Identify IC50 associated with the molecule N#Cc1ccc(CCNC(C(=O)c2c[nH]c3cc(C(=O)N4CCCC4)ccc23)c2ccccc2)cc1 (single isomer, unassigned) [171 Isomer 1]
> 5 µM

Give me measured IC50, please, for this molecule: CC(Cc1ccc(C(N)=O)cc1)NC(C(=O)c1c[nH]c2ccccc12)c1ccccc1 (single isomer, unassigned) [140 Isomer 4]
> 5 µM

Fill in IC50 for record CC(CNC(C(=O)c1c[nH]c2ccccc12)c1ccccc1)c1ccc(C(N)=O)cc1 (single isomer, unassigned) [141 Isomer 2]
> 5 µM

Return the recorded IC50 value; entry: CN1CCC(c2ccc3c(C(=O)C(NCCc4ccc(C(N)=O)cc4)c4ccccc4)c[nH]c3c2)CC1 (single isomer, unassigned) [178 Isomer 1]
> 5 µM

Report measured IC50; entry is NS(=O)(=O)c1ccc(CCNC(C(=O)c2c[nH]c3cc(C(F)(F)F)ccc23)c2ccccc2)cc1 (single isomer, unassigned) [1 Isomer 2]
> 30 µM

Look up IC50 of O=C(c1c[nH]c2ccccc12)C(NCCc1ccc(OC(F)(F)F)cc1)c1ccccc1 (single isomer, unassigned) [40 Isomer 2] and report it.
1.31 µM

Tell me measured IC50 for CNC(=O)CCc1ccc2c(C(=O)C(NCCc3ccc(F)cc3)c3ccccc3)c[nH]c2c1 (single isomer, unassigned) [158 Isomer 2] please.
> 5 µM

Source of measurements: patent US11414384B2
